Test system: ACHN
Assay: NCI tumour cell line growth inhibition, 48 h
The source made the active and inactive calls. No stated cut-off is given here; in the data, active = GI50 up to about 1.1 µM and inactive = higher.
Parameter GI50: see the listing below.

{"COMPOUND": "COc1cc2c(cc1OC)C13CCN4CC5=CCOC(CC(=O)O)C(C5CC41)C3N2 (stereo not given)", "GI50": "> 100 µM (inactive)"}
{"COMPOUND": "C=Cc1c(C)c(O)cc2c1-c1ccc(O)c(C)c1CC2", "GI50": "29.4 µM (inactive)"}
{"COMPOUND": "Cc1cc(C)c(C2=NOC(c3ccccc3)(c3cc(=O)n(-c4ccccc4)s3)O2)c(C)c1 (stereo not given)", "GI50": "24.2 µM (inactive)"}
{"COMPOUND": "O=c1[nH]c(=O)n(C2OC(CO)C(O)C2O)c2ccsc12 (stereo not given)", "GI50": "> 100 µM (inactive)"}
{"COMPOUND": "O=C(c1ccco1)N(C(=O)N1CCN(c2ccccc2)CC1)S(=O)(=O)c1ccccc1", "GI50": "24.7 µM (inactive)"}
{"COMPOUND": "CCCC(Sc1ccccc1)P(=O)(c1ccccc1)c1ccccc1 (stereo not given)", "GI50": "19.8 µM (inactive)"}
{"COMPOUND": "CC(=O)C1=CN=C2C(=O)N(c3ccccc3)N(C)C12C (stereo not given)", "GI50": "> 100 µM (inactive)"}
{"COMPOUND": "COc1cc2c(c(O)c1O)C(=O)C1CCC(=O)N1C2c1cccc2ccccc12 (stereo not given)", "GI50": "> 50 µM (inactive)"}
{"COMPOUND": "O=C(OCc1nc2ccc(Br)cc2c(=O)n1-c1ccccc1)c1ccccc1O", "GI50": "70.5 µM (inactive)"}
{"COMPOUND": "CC1CC2C3CCC4=CC(=O)C=CC4(C)C3(F)C(O)CC2(C)C1(O)C(=O)COP(=O)(O)O (stereo not given)", "GI50": "> 100 µM (inactive)"}
